- Test system: Human immunodeficiency virus 1
- ASSAY_REMARKS: Antiviral effective concentration for Inhibitory activity on HIV-1(IIIB) replication in MT-4 cells
- Type: functional, organism-based
- SETUP_CONDITIONS: Human immunodeficiency virus 1, MT4
Labelling field: enter Y if recorded EC50 is less than 2000 nM. Enter N if it equals or exceeds that cut-off.

LINE_NOTATION	GROUP_LABEL
c1cc2nc(c1)CNCCCN(Cc1ccc(CN3CCCNCc4cccc(n4)CNCCC3)cc1)CCCNC2	Y
c1cc2cc(c1)CNCCCN(Cc1ccc(CN3CCCNCc4cccc(c4)CNCCC3)cc1)CCCNC2	N
Clc1cc2nc(c1)CNCCCN(Cc1ccc(CN3CCCNCc4cc(Cl)cc(n4)CNCCC3)cc1)CCCNC2	Y
c1cc(CN2CCCNCCNCCNCCC2)ccc1CN1CCCNCCNCCNCCC1	Y
c1cc(CN2CCCNCCOCCNCCC2)ccc1CN1CCCNCCOCCNCCC1	N
c1cc(CN2CCNCc3cccc(n3)CNCC2)cc(CN2CCNCc3cccc(n3)CNCC2)c1	Y
COc1cc2nc(c1)CNCCCN(Cc1ccc(CN3CCCNCc4cc(OC)cc(n4)CNCCC3)cc1)CCCNC2	N
c1cc(CN2CCCOCCOCCCNCC2)ccc1CN1CCCOCCOCCCNCC1	N
Oc1cc2nc(c1)CNCCCN(Cc1ccc(CN3CCCNCc4cc(O)cc(n4)CNCCC3)cc1)CCCNC2	N
c1cc2nc(c1)CNCCN(Cc1ccc(CN3CCNCc4cccc(n4)CNCC3)cc1)CCNC2	Y
c1cc(CN2CCCSCCSCCCNCC2)ccc1CN1CCCSCCSCCCNCC1	N
c1cc2nc(c1)CCNCCCN(Cc1ccc(CN3CCCNCCc4cccc(n4)CCNCCC3)cc1)CCCNCC2	Y
c1cc2nc(c1)CCNCCN(Cc1ccc(CN3CCNCCc4cccc(n4)CCNCC3)cc1)CCNCC2	Y
c1cc(CN2CCCNCCCCCNCCC2)ccc1CN1CCCNCCCCCNCCC1	N
c1ccc(-c2cc3nc(c2)CNCCCN(Cc2ccc(CN4CCCNCc5cc(-c6ccccc6)cc(n5)CNCCC4)cc2)CCCNC3)cc1	Y
c1cc(CN2CCCNCc3cncc(n3)CNCCC2)ccc1CN1CCCNCc2cncc(n2)CNCCC1	N
